B1: Intersectin-1, residues 1156 to 1213; numbered along this chain, Q15811 (parent)
chain: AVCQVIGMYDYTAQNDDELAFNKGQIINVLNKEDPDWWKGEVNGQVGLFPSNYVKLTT

# Variants of: B1
# Assay Protocol: abundance fitness (aPCA) (normalised: wild type 0, dead -1); higher = more abundant; growth selection in yeast, the domain comes from the species named
# Reported Conditions: Homo sapiens
Parameter: abundance fitness

Here are 3 variants together with their reported answers.
{"columns": ["Ordered Residues", "abundance fitness"],
 "data": [
  ["AVCQVIGMYDYTAQNDDELAFNKGQIINVLNKEDPDWWKGEVNGQVGLFPSNYRKLTT", -0.684],
  ["AVCQVIGMYDYTAQNDDELAFNKGQIDNVLNKEDPDWWKGEVNGQVGLFPSNYVKLTT", -0.695],
  ["AVCQVIGMYDYTAQNDDELAFNKGQIINVLNKEDPDWWKGVVNGQVGLFPSNYVKLTT", -0.681]
]}

Here is another variant to look at.
*Q* Please look up its abundance fitness: `AVCQVIGMYDQTAQNDDELAFNKGQIINVLNKEDPDWWKGEVNGQVGLFPSNYVKLTT`
*A* -0.692
